Taken from patent US20250353908A1.

We begin with a simple list: items and their reported ELISA score (ratio of phage binding to CS1-Fc vs IgG-Fc).
Biological target: T1, CS1-Fc (human, UniProt Q9NQ25 23-226)
T1 construct: also called recombinant human CS1-Fc; CS1-Fc polypeptide; not shown: Fc portion of CS1-Fc
T1 sequence: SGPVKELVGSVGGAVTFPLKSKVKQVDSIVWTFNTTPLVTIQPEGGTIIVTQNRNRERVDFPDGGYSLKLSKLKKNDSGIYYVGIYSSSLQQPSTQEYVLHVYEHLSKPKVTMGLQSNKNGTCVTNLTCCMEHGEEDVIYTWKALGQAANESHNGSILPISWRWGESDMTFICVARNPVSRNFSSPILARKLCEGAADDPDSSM
Test: phage ELISA, CS1-Fc captured on anti-human IgG1-Fc, anti-M13-HRP, A450 target / A450 IgG1-Fc
recorded metric: ELISA score (ratio of phage binding to CS1-Fc vs IgG-Fc)

binder	result
CS1DD008 (designed binder) MGSWDEFNQRLGAIEERLQALGGSEAELAAFEKEIAAFESELQAYKGKGNPEVEFLRWYAAGIRWELQAYRHN	19.2 ratio
SEQ ID NO 68 (designed binder) MGSWYEFWTRLTAIQMRLDALGGSEAELAAFEKEIAAFESELQAYKGKGNPEVEDLRAFAAQIRTHLQAYRHN	13.1 ratio
SEQ ID NO 84 (designed binder) MGSWIEFGWRLQAIEERLRALGGSEAELAAFEKEIAAFESELQAYKGKGNPEVEVLREWAAEIRWQLQAYRHN	16.3 ratio
SEQ ID NO 87 (designed binder) MGSWTEFHNRLWAIYDRLDALGGSEAELAAFEKEIAAFESELQAYKGKGNPEVETLRHHAAGIRRSLQAYRHN	14.7 ratio
SEQ ID NO 80 (designed binder) MGSWTEFWYRLSAIDLRLEALGGSEAELAAFEKEIAAFESELQAYKGKGNPEVEELRDYAAYIRAELQAYRHN	17.8 ratio
